# EXPERIMENTAL SYSTEM: GDP-bound KRAS wild-type protein (Homo sapiens, UniProt P01116)
# Sequence (P01116 whole entry): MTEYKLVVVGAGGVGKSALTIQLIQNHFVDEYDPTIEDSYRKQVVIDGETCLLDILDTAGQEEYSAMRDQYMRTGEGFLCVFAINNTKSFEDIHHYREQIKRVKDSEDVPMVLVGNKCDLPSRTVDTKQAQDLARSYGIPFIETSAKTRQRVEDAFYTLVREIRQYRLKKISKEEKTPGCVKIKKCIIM
# ASSAY EXPLANATION: Binding to KRAS by surface plasmon resonance (SPR), Single Cycle Kinetics
# CONDITIONS: SPR, Single Cycle Kinetics, GDP-bound KRAS wild-type protein; read-out: KRAS KD
Where a SMILES comes first, the peptide text is derived from it. Bridges are numbered along the chain shown (N, C = ends). [ ]: non-standard residue; d: D form. The star is where a group is joined. hPhe(3-Cl-4-CF3) = N[C@@H](CCc1ccc(C(F)(F)F)c(Cl)c1)C(=O)O; NPrPhe(4-CF3) = CCCN[C@@H](Cc1ccc(C(F)(F)F)cc1)C(=O)O; NMeGly(cPent) = CN[C@H](C(=O)O)C1CCCC1; NMeD = CN[C@@H](CC(=O)O)C(=O)O; NMeL = CN[C@@H](CC(C)C)C(=O)O; Morpholide = C1CN(*)CCO1; Ac5c = NC1(C(=O)O)CCCC1; NEtG = CCNCC(=O)O; Sar = CNCC(=O)O
PROPERTY NAME: Kd (nM)

{"COMPOUND": "CCCN1C(=O)CN(CC)C(=O)CNC(=O)[C@H]([C@@H](C)CC)NC(=O)[C@H](CC(C)C)N(C)C(=O)C[C@@H](C(=O)N2CCOCC2)N(C)C(=O)[C@H](C2CCCC2)N(C)C(=O)C2(CCCC2)NC(=O)[C@@H]2CCCN2C(=O)[C@H](CCc2ccc(C(F)(F)F)c(Cl)c2)NC(=O)CN(C)C(=O)[C@@H]1Cc1ccc(C(F)(F)F)cc1 [PP1968] ([NMeL]IG[NEtG][NPrPhe(4-CF3)][Sar][hPhe(3-Cl-4-CF3)]P[Ac5c][NMeGly(cPent)][NMeD]-Morpholide; lactam N-11)", "MEASURED": 0.76}
{"COMPOUND": "CCO[C@@H]1C[C@H]2C(=O)NC3(CCC3)C(=O)N(C)[C@@H](C(CC)CC)C(=O)N(C)[C@H](CC)CC(=O)N(C)[C@@H](CC3CC3)C(=O)N[C@@H]([C@@H](C)CC)C(=O)N(C)CC(=O)N(C)[C@H]3C/C=C\\CCN(C3=O)[C@@H](Cc3ccc(C(F)(F)F)cc3)C(=O)N(C)CC(=O)N[C@@H](CCc3cc(F)c(C(F)(F)F)c(F)c3)C(=O)N2C1", "MEASURED": 1.8}
{"COMPOUND": "CCC[C@H]1C(=O)N[C@@H]([C@@H](C)CC)C(=O)N(C)CC(=O)N(C)[C@H]2C/C=C\\CCN(C2=O)[C@@H](Cc2ccc(C(F)(F)F)cc2)C(=O)N(C)CC(=O)N[C@@H](CCc2ccc(C(F)(F)F)c(Cl)c2)C(=O)N2CC3(CC3)C[C@H]2C(=O)NC2(CC(C)(C)C2)C(=O)N(C)[C@@H](CC(C)(C)C)C(=O)N(C)[C@H](C(=O)N(C)C)CC(=O)N1C", "MEASURED": 0.28}
{"COMPOUND": "CCO[C@@H]1C[C@H]2C(=O)NC3(CC(C)(C)C3)C(=O)N(C)[C@@H](C(CC)CC)C(=O)N(C)[C@H](C(=O)N3CCCC3)CC(=O)N(C)[C@@H](COC)C(=O)N[C@@H]([C@@H](C)CC)C(=O)N(C)CC(=O)N(C)[C@H]3C/C=C\\CCN(C3=O)[C@@H](Cc3ccc(C(F)(F)F)cc3)C(=O)N(C)CC(=O)N[C@@H](CCc3ccc(C(F)(F)F)c(Cl)c3)C(=O)N2C1", "MEASURED": 0.4}
{"COMPOUND": "CCO[C@@H]1C[C@H]2C(=O)NC3(CC(C)(C)C3)C(=O)N(C)[C@@H](C(CC)CC)C(=O)N(C)[C@H](C(=O)N(C)C)CC(=O)N(C)[C@@H](C)C(=O)N[C@@H]([C@@H](C)CC)C(=O)N(C)CC(=O)N(C)[C@H]3C/C=C\\CCN(C3=O)[C@@H](Cc3ccc(C)cc3)C(=O)N(C)CC(=O)N[C@@H](CCc3cc(F)c(C(F)(F)F)c(F)c3)C(=O)N2C1", "MEASURED": 0.31}
{"COMPOUND": "CCO[C@@H]1C[C@H]2C(=O)NC3(CCC3)C(=O)N(C)[C@@H](C3CCCC3)C(=O)N(CC)[C@H](C(=O)N3CCOCC3)CC(=O)N(C)[C@@H](CCc3ccccc3)C(=O)N[C@@H]([C@@H](C)CC)C(=O)N(C)CC(=O)N(C)[C@H]3CCCCCN(C3=O)[C@@H](Cc3ccc(C(F)(F)F)cc3)C(=O)N(C)CC(=O)N[C@@H](CCc3cc(F)c(C(F)(F)F)c(F)c3)C(=O)N2C1", "MEASURED": 27}
{"COMPOUND": "CCO[C@@H]1C[C@H]2C(=O)NC3(CCC3)C(=O)N(C)[C@@H](C3CCCC3)C(=O)N(C)[C@H](C(=O)N(C)C)CC(=O)N(C)[C@@H](Cc3cccc(F)c3)C(=O)N[C@@H]([C@@H](C)CC)C(=O)N(C)CC(=O)N(C)[C@H]3CCCCCN(C3=O)[C@@H](Cc3ccc(C(F)(F)F)cc3)C(=O)N(C)CC(=O)N[C@@H](CCc3cc(F)c(C(F)(F)F)c(F)c3)C(=O)N2C1", "MEASURED": 0.43}
{"COMPOUND": "CC[C@H](C)[C@@H]1NC(=O)[C@H](COC)N(C)C(=O)C[C@@H](C(=O)N(C)CC)N(C)C(=O)[C@H](C2CCCC2)N(C)C(=O)C2(CC(C)(C)C2)NC(=O)[C@@H]2C[C@H](C)CN2C(=O)[C@H](CCc2cc(F)c(C(F)(F)F)c(F)c2)NC(=O)CN(C)C(=O)[C@H](Cc2ccc(C)cc2)N2CC/C=C\\C[C@@H](C2=O)N(C)C(=O)CN(C)C1=O", "MEASURED": 0.12}
{"COMPOUND": "CC[C@H](C)[C@@H]1NC(=O)[C@@H]2CCCCCc3ccc(cc3)C[C@@H](C(=O)N(C)CC(=O)N[C@@H](CCc3ccc(C(F)(F)F)c(OC)c3)C(=O)N3C[C@H](OC(C)C)C[C@H]3C(=O)NC3(CC(C)(C)C3)C(=O)N(C)[C@@H](C3CCCC3)C(=O)N(C)[C@H](C(=O)N(C)C)CC(=O)N2C)N2CC/C=C\\C[C@@H](C2=O)N(C)C(=O)CN(C)C1=O", "MEASURED": 0.048}
{"COMPOUND": "CCO[C@@H]1C[C@H]2C(=O)NC3(CC(C)(C)C3)C(=O)N(C)[C@@H](C(CC)CC)C(=O)N(C)[C@H](C(=O)N(C)C)CC(=O)N(C)[C@@H](C)C(=O)N[C@@H]([C@@H](C)CC)C(=O)N(C)CC(=O)N(C)[C@H]3C/C=C\\CCN(C3=O)[C@@H](Cc3ccc(C)cc3)C(=O)N(C)CC(=O)N[C@@H](CCc3ccc(Cl)c(Cl)c3)C(=O)N2C1", "MEASURED": 2.3}
{"COMPOUND": "CC[C@H](C)[C@@H]1NC(=O)[C@H](CC2CC2)N(C)C(=O)C[C@@H](C(=O)N(C)C)N(C)C(=O)[C@H](C2CCCC2)N(C)C(=O)C2(CC(C)(C)C2)NC(=O)[C@@H]2C[C@H](C)CN2C(=O)[C@H](CCc2cc(F)c(C(F)(F)F)c(F)c2)NC(=O)CN(C)C(=O)[C@H](Cc2ccc(C(F)(F)F)cc2)N2CC/C=C\\C[C@@H](C2=O)N(C)C(=O)CN(C)C1=O", "MEASURED": 0.11}
